From: BigSolDB 2.1

# experimental.context: in isobutanol, 288.15 K
quantity.measured: solubility (mole fraction)
Format: numeric value only, no unit, no commentary.

Input line: // query solubility (mole fraction) value for entry OC/C=C/c1ccccc1
Output line: 0.498

###

# experimental.context: in ethyl acetate, 318.15 K
quantity.measured: solubility (mole fraction)
Just the number.

Input line: Looking for the measured solubility (mole fraction) of O=C(O)c1ccccc1O , can you help?
Output line: 0.179

###

# experimental.context: in methyl acetate, 278.15 K
quantity.measured: solubility (mole fraction)
// response body must contain only the number

Input line: I have this compound here, OC/C=C/c1ccccc1 , and I need its recorded solubility (mole fraction).
Output line: 0.452

###

# experimental.context: in n-propanol, 293.15 K
quantity.measured: solubility (mole fraction)
Answer with the value's number alone.

Input line: Query: solubility (mole fraction); subject: OC/C=C/c1ccccc1
Output line: 0.634

###

# experimental.context: in isopropanol, 283.15 K
quantity.measured: solubility (mole fraction)

Input line: Consider the compound OC/C=C/c1ccccc1 and give its measured solubility (mole fraction).
Output line: 0.512

###

# experimental.context: in ethanol, 278.15 K
quantity.measured: solubility (mole fraction)
// print number alone

Input line: Returns the measured solubility (mole fraction) for the input compound. Input: OC/C=C/c1ccccc1
Output line: 0.456

###

# experimental.context: in sec-butanol, 258.15 K
quantity.measured: solubility (mole fraction)
Give the value as a plain number.

Input line: Quick check: solubility (mole fraction) of OC/C=C/c1ccccc1 ?
Output line: 0.142

###

# experimental.context: in n-hexane, 293.15 K
quantity.measured: solubility (mole fraction)
Response field accepts a number only; no unit should be typed.

Input line: Value lookup for solubility (mole fraction); key = OC/C=C/c1ccccc1
Output line: 0.0418

###

# experimental.context: in methanol, 313.15 K
quantity.measured: solubility (mole fraction)
Enter the number alone.

Input line: # lookup: solubility (mole fraction) of O=C(O)c1ccccc1O
Output line: 0.163

###

# experimental.context: in acetone, 318.15 K
quantity.measured: solubility (mole fraction)
Form rule: numeric answer, no unit written next to it.

Input line: Could you tell me which solubility (mole fraction) is on file for O=C(O)c1ccccc1O ?
Output line: 0.231

###

# experimental.context: in n-butanol, 263.15 K
quantity.measured: solubility (mole fraction)
Answer using only a numeral; do not append any unit.

Input line: Reported solubility (mole fraction) for OC/C=C/c1ccccc1 : what is it?
Output line: 0.214

###

# experimental.context: in isobutanol, 258.15 K
quantity.measured: solubility (mole fraction)
Note: the reply should be a number with no unit written.

Input line: Give the measured solubility (mole fraction) of OC/C=C/c1ccccc1 .
Output line: 0.105

###

# experimental.context: in methanol, 253.15 K
quantity.measured: solubility (mole fraction)
Please give only the number in your answer, with no unit.

Input line: May I ask what solubility (mole fraction) has been recorded for OC/C=C/c1ccccc1 ?
Output line: 0.222

###

# experimental.context: in methyl acetate, 263.15 K
quantity.measured: solubility (mole fraction)

Input line: What does the record list as solubility (mole fraction) for OC/C=C/c1ccccc1 ?
Output line: 0.27

###

# experimental.context: in ethyl acetate, 278.15 K
quantity.measured: solubility (mole fraction)
Number only, no unit.

Input line: # get_value(readout='solubility (mole fraction)', item= OC/C=C/c1ccccc1 )
Output line: 0.486

###

# experimental.context: in acetone, 258.15 K
quantity.measured: solubility (mole fraction)

Input line: Look up solubility (mole fraction) for this molecule: OC/C=C/c1ccccc1
Output line: 0.322
